Numbers sourced from patent US20260234157A1.

MEASURED TARGET: AR protein (Homo sapiens)
Construct: degradation activity of the compounds disclosed in the present disclosure on AR protein in VCaP cells; host or cells: VCaP
Sequence (P10275 whole entry): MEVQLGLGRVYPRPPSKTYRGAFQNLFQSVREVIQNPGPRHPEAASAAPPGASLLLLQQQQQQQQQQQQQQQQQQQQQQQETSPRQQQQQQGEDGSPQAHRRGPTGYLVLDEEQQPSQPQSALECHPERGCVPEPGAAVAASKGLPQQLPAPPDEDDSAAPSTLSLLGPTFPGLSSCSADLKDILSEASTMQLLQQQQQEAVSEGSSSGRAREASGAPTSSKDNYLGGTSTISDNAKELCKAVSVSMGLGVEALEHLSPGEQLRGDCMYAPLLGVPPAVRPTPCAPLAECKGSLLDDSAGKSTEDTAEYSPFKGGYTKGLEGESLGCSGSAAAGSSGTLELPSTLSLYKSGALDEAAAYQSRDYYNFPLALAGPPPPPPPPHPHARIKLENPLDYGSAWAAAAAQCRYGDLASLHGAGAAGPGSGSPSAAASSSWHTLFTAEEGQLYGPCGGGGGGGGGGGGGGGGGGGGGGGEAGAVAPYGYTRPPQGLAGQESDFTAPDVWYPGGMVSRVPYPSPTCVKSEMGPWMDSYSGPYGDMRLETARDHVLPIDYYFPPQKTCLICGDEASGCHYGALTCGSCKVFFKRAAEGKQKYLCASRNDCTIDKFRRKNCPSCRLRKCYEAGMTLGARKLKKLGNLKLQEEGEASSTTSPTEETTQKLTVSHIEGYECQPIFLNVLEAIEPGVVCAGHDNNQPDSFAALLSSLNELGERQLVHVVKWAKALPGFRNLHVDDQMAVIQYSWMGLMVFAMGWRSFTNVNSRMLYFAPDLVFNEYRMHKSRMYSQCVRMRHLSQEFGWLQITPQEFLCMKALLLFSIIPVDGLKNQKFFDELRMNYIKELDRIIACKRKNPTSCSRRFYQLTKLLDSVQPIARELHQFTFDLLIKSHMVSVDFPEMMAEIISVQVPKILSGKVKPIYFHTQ
METHOD NOTES: Degradation of AR protein in VCaP cells (Western blot)
Type: cell-based
SETTINGS: compound at 100 nM, 8 hours, read-out: Degradation rate of the AR protein in VCaP cells, 100 nM (%)

MOLECULE	UNIT DESCRIPTOR	inhibition at 0.1 µM
N#Cc1ccc(O[C@H]2CC[C@H](NC(=O)c3ccc(N4CC5(CCC(N6CCC7(CCc8cc9c(cc8O7)C(=O)N(C7CCC(=O)NC7=O)C9=O)CC6)CC5)C4)nn3)CC2)cc1Cl (some centres unmarked)	%	52
COc1cc(O[C@H]2CC[C@H](NC(=O)c3ccc(N4CCC(O)(CN5CCC6(CC5)COc5c6ccc6c5C(=O)N(C5CCC(=O)NC5=O)C6=O)CC4)nn3)CC2)ccc1C#N (some centres unmarked)	%	82
CCC1(CN2CCC3(CC2)COc2c3ccc3c2CN(C2CCC(=O)NC2=O)C3=O)CCN(c2ccc(C(=O)N[C@H]3C(C)(C)[C@H](Oc4ccc(C#N)c(OC)c4)C3(C)C)cc2)CC1 (some centres unmarked)	%	62
N#Cc1ccc(O[C@H]2CC[C@H](NC(=O)c3ccc(N4CCC5(CC4)CC(C(=O)N4CCC6(CC4)COc4c6ccc6c4CN(C4CCC(=O)NC4=O)C6=O)C5)nn3)CC2)cc1Cl (some centres unmarked)	%	85
COc1cc(O[C@H]2C(C)(C)[C@H](NC(=O)c3ccc(N4CCC(C)(CN5CCC6(CC5)COc5cc7c(cc5C6)C(=O)N(C5CCC(=O)NC5=O)C7=O)CC4)cc3)C2(C)C)ccc1C#N (some centres unmarked)	%	15
